Sourced from patent US11141462B2

- Test system: OA articular chondrocytes
- procedure-text: OA chondrocyte phenotype gene expression screening of BMP-7 peptides (RT-qPCR)
- Type: cell-based, human
- condition-label: Table 2 (FIG. 4: 10 nM, 24 hours, RT-qPCR, 28S rRNA normalized); vs untreated OA articular chondrocytes
assay-readout: BAPX1/NKX3.2

Answered cases to consult:
> print(dat)
                                  substance  assay.readout  val
1  18 (PKPSSAPTQLNAISVLYFDDSSNVILKKYRNMVVRASGSH; listed as Homo sapiens) [compound 18]   BAPX1/NKX3.2    +
2  10 (TQLNAISVLYFDDSSNVILK; listed as Homo sapiens) [compound 10]   BAPX1/NKX3.2    +
3  7 (KPSSAPTQLNAISVLYFDDS; listed as Homo sapiens) [compound 7]   BAPX1/NKX3.2    +
4  5 (VPKPSSAPTQLNAISVLYFD; listed as Homo sapiens) [compound 5]   BAPX1/NKX3.2    —
5  13 (SVLYFDDSSNVILKKYRNMV; listed as Homo sapiens) [compound 13]   BAPX1/NKX3.2    +

Task item: Please report the recorded BAPX1/NKX3.2 for 9 (APTQLNAISVLYFDDSSNVI; listed as Homo sapiens) [compound 9] .
Reply: +

Task item: // next record 17 (SSNVILKKYRNMVVRASGSH; listed as Homo sapiens) [compound 17]
Reply: +

Task item: // next record 1 (FINPETVPKPSSAPTQLNAISVLYFDDSSNVILKKYRNMVVRASGSH; listed as Homo sapiens) [compound 1]
Reply: —

Task item: // next record 6 (PKPSSAPTQLNAISVLYFDD; listed as Homo sapiens) [compound 6]
Reply: +
